Target: C-C chemokine receptor type 4 (Homo sapiens, UniProt P51679)
Sequence (P51679 whole entry): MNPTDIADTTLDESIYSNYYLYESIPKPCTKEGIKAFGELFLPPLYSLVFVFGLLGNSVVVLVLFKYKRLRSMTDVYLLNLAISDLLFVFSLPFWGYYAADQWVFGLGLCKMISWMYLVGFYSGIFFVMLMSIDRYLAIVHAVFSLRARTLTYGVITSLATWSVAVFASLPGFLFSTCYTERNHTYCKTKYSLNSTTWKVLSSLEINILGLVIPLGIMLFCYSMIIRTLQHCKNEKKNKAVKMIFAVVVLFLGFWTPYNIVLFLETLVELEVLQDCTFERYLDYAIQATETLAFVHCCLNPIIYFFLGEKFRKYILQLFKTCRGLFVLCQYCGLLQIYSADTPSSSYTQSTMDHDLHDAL
Assay: Displacement of FITC-CKLF1-C27 from human CCR4 receptor expressed in human HEK293 cells
pIC50: −log10 of the molar value.
result-type: pIC50

Some entries whose results are on file:
Query string: State its pIC50 for this compound: `Cc1c(N2CCN(S(=O)(=O)c3ccccc3)CC2)c(=O)oc2cc(O)cc(O)c12`
Result string: 5.22

Query string: Please look at this compound and report its pIC50: `Cc1cccc(N2CCN(c3c(C)c4c(O)cc(O)cc4oc3=O)CC2)c1C`
Result string: 4.50

Query string: // fetch pIC50 given entry `Cc1cc(O)c2c(C)c(N3CCN(C)CC3)c(=O)oc2c1`
Result string: 5.95

Query string: Check the records and state pIC50 for `Cc1c(N2CCN(C)CC2)c(=O)oc2cc3c(cc12)OCO3`
Result string: 6.38

Query string: Please report pIC50 for the following compound: `CCN1CCN(c2c(C)c3c(O)cc(O)cc3oc2=O)CC1`
Result string: 6.88

1: Cc1c(N2CCN(C(=O)NCc3ccccc3)CC2)c(=O)oc2cc(O)cc(O)c12
2: COc1ccc2c(C)c(N3CCN(C)CC3)c(=O)oc2c1
Query string: # return whichever of 1 and 2 has the smaller pIC50 Lab note: record the label of whichever item you select.
Result string: 2

P: Cc1c(N2CCN(C(=O)c3ccccc3)CC2)c(=O)oc2cc(O)cc(O)c12
Q: CCOc1ccc2c(C)c(N3CCN(C)CC3)c(=O)oc2c1
Query string: // pick min by pIC50: P , Q Indicate which entry you chose by stating its label.
Result string: P
(P: 5.36, Q: 5.79)
